- Test system: ACHN renal
- test-method-notes: NCI tumour cell line growth inhibition, 48 h

# compound, GI50
data = [
    ("C[N+]1=C(/C=C\\C=C\\c2ccccc2)C(C)(C)c2ccccc21", "5840 nM"),
    ("O=C(OC[C@H]1O[C@H](OC(=O)c2cc(O)c(O)c(OC(=O)c3cc(O)c(O)c(O)c3)c2)[C@H](OC(=O)c2cc(O)c(O)c(OC(=O)c3cc(O)c(O)c(O)c3)c2)[C@@H](OC(=O)c2cc(O)c(O)c(OC(=O)c3cc(O)c(O)c(O)c3)c2)[C@@H]1OC(=O)c1cc(O)c(O)c(OC(=O)c2cc(O)c(O)c(O)c2)c1)c1cc(O)c(O)c(OC(=O)c2cc(O)c(O)c(O)c2)c1", "6420 nM"),
    ("O=C1c2ccccc2-c2c1c1ccccc1c(=O)n2CCCn1ccnc1", "885 nM"),
    ("C=C1C(=O)O[C@H]2[C@H]1CC/C(Cn1cc(-c3ccccc3C(F)(F)F)nn1)=C\\CC[C@@]1(C)O[C@@H]21", "1450 nM"),
    ("OCC#Cc1ccccc1C#CCCCCCC#Cc1ccccc1C#CCO", "27100 nM"),
    ("Cc1cnc(C(=O)Nc2nc3ccc(S(=O)(=O)Nc4ccc(C5(C(F)(F)F)CC5)cc4)cc3[nH]2)cn1", "552 nM"),
    ("CCNC(=O)O[C@H]1CN[C@H](C#Cc2cc3ncnc(Nc4ccc(OCc5cccc(F)c5)c(Cl)c4)c3s2)C1", "1990 nM"),
    ("Cc1ccc(Cl)cc1NC(=O)c1sc2nc3c(cc2c1N)C(=O)CCC3", "50400 nM"),
    ("COc1cc(-c2nc(SCCC(C)C)nc(Nc3ccc(S(N)(=O)=O)cc3)c2C#N)cc(OC)c1OC", "2790 nM"),
    ("CCCCCCCCCCCCC(O)[C@H]1CC[C@H](C(O)CCCCCC(=O)CCCCC2CC(C(C)=O)C(=O)O2)O1 (some centres undefined)", "1680 nM"),
    ("CCCCCCCc1cc2c3c(nc4ccccc42)C(=O)c2cccnc2-c3n1", "4080 nM"),
    ("O=C1C[C@@H]2/C(=C(O)\\C=C\\c3ccccc3)C(=O)C=C[C@@H]2O1", "1560 nM"),
    ("O=C(/C=C/c1ccc(C(F)(F)F)cc1)c1ccc(Nc2nc(NCCO)nc(Nc3ccc(Cl)cc3)n2)cc1", "4810 nM"),
    ("COc1cc2c(cc1OCCCC(=O)Nc1ccc3ccc4cccc5ccc1c3c45)N=C[C@@H]1CCCN1C2=O", "44 nM"),
]

----------
- Test system: OVCAR-3 ovarian
- test-method-notes: NCI tumour cell line growth inhibition, 48 h
Where a SMILES comes first, the peptide text is derived from it. The star is where a group is joined. Boc = CC(C)(C)OC(=O)*
measured-endpoint: TGI

# compound, target-under-test, val
records = [
    ("O=C1CSC(c2cccc([N+](=O)[O-])c2)N1c1ccc(-n2c(-c3ccccc3)nc3ccccc3c2=O)cc1 (configuration not stated)", "OVCAR-3 ovarian", "> 100 µM"),
    ("CCCC(=O)OC1C(CO)OC(n2cc(F)c(=O)[nH]c2=O)C1F (configuration not stated)", "OVCAR-3 ovarian", "> 100 µM"),
    ("Cc1cc(S(=O)(=O)Nc2nc3ccccc3c(=O)n2N)c(S)cc1Cl", "OVCAR-3 ovarian", "> 100 µM"),
    ("O=C(/C=C/c1ccc(C(F)(F)F)cc1)c1ccc(Nc2nc(NCCO)nc(Nc3ccc(Cl)cc3)n2)cc1", "OVCAR-3 ovarian", "8.12 µM"),
    ("Cc1cc(C)cc(NC(N)=S)c1", "OVCAR-3 ovarian", "> 100 µM"),
    ("O=C1C[C@@H]2/C(=C(O)\\C=C\\c3ccccc3)C(=O)C=C[C@@H]2O1", "OVCAR-3 ovarian", "1.82 µM"),
    ("C=CCC1C(=O)CC2(C)CC(=O)C(CC=C)C12C (configuration not stated)", "OVCAR-3 ovarian", "> 100 µM"),
    ("CC(C)(C)OC(=O)N1C(c2cccnc2)=CC[C@H]2C3CC=C(c4cccnc4)[C@@]3(C)CC[C@@H]21 (some centres not stated)", "OVCAR-3 ovarian", "14.2 µM"),
    ("CCNC(=O)O[C@H]1CN[C@H](C#Cc2cc3ncnc(Nc4ccc(OCc5cccc(F)c5)c(Cl)c4)c3s2)C1", "OVCAR-3 ovarian", "16.7 µM"),
    ("O=C(O)CN1C(=O)C(Cc2ccc(O)cc2)N=C(c2cccc(O)c2)c2ccccc21 (configuration not stated)", "OVCAR-3 ovarian", "> 100 µM"),
    ("C=CCc1cccc2cc(C(=O)Nc3ccccn3)c(=N)oc12", "OVCAR-3 ovarian", "> 100 µM"),
    ("COc1cc(Cc2nccc3cc(OC)c(OC)cc23)c(N=NN(C)C)cc1OC", "OVCAR-3 ovarian", "73.9 µM"),
    ("N#C/C(N)=C(\\C#N)NC(=O)C(=O)N/C(C#N)=C(\\N)C#N", "OVCAR-3 ovarian", "> 100 µM"),
    ("Cn1cc(C(=O)C[n+]2ccccc2)c2ccccc21", "OVCAR-3 ovarian", "> 100 µM"),
    ("CC(=O)C1=C(O)CC2CC3c4[nH]c5ccccc5c4CCN3CC2C1 (configuration not stated)", "OVCAR-3 ovarian", "> 100 µM"),
    ("OCCNCNc1nc(NCNCCO)nc(N(CNCCO)CNCCO)n1", "OVCAR-3 ovarian", "58.7 µM"),
    ("O=c1c2cc(Cl)ccc2sc2cccc(Cl)c12", "OVCAR-3 ovarian", "> 100 µM"),
    ("Clc1ccc(C(n2cc(Br)cn2)n2cc(Br)cn2)cc1", "OVCAR-3 ovarian", "28 µM"),
    ("COc1cc2c(cc1OCCCC(=O)Nc1ccc3ccc4cccc5ccc1c3c45)N=C[C@@H]1CCCN1C2=O", "OVCAR-3 ovarian", "0.518 µM"),
    ("O=C(NC12CC3CC(CC(C3)C1)C2)C(=O)c1c[nH]c2ccccc12", "OVCAR-3 ovarian", "31 µM"),
    ("CC(C)(C)c1cc(O)ccc1O", "OVCAR-3 ovarian", "> 70 µM"),
    ("COc1cccc(NC(=O)/C(Cc2nc3ccccc3nc2C)=N/NC(=O)C[n+]2ccccc2)c1", "OVCAR-3 ovarian", "> 100 µM"),
    ("CN(C)CC/[N+]([O-])=C(/c1ccccc1)C12CC3CC(CC(C3)C1)C2", "OVCAR-3 ovarian", "27.8 µM"),
    ("CCN(CC)c1ccc(C(=O)c2ccc(N(CC)CC)cc2)cc1", "OVCAR-3 ovarian", "0.706 µM"),
    ("Cc1cc2c([nH]c3ccccc32)c2c1OC(C)(C)C1C3CC(C)(C)Oc4c(C)cc5c6ccccc6n(c5c43)C21 (configuration not stated)", "OVCAR-3 ovarian", "> 100 µM"),
    ("COc1cc2c(cc1OC)C13CCN4CC5CCOC6CC(=O)N2C1C6C5CC43 (configuration not stated)", "OVCAR-3 ovarian", "> 100 µM"),
    ("N#CC1CCCCCCCCCCC(=O)N(CCCl)C1=O (configuration not stated)", "OVCAR-3 ovarian", "> 100 µM"),
    ("O=C1c2ccccc2C(=O)N1CC(O)COc1cccc2ccccc12 (configuration not stated)", "OVCAR-3 ovarian", "> 100 µM"),
    ("C/C(=N\\NC(=S)NCCCNC(=S)N/N=C(\\C)c1ccccn1)c1ccccn1", "OVCAR-3 ovarian", "20.7 µM"),
    ("CC(=O)Nc1c(C)cc2c(nc3n2CCC3O)c1[N+](=O)[O-] (configuration not stated)", "OVCAR-3 ovarian", "> 100 µM"),
    ("O=C(NNC(=S)NC1CCCCC1)c1csc(NC(=S)NC2CCCCC2)n1", "OVCAR-3 ovarian", "16.9 µM"),
    ("COC(=O)C(Cc1c[nH]c2ccccc12)NC(=O)C(Cc1c[nH]c2ccccc12)NC(=O)C(Cc1c[nH]c2ccccc12)NC(=O)C(Cc1c[nH]c2ccccc12)NC(=O)C(Cc1c[nH]c2ccccc12)NC(=O)C(Cc1c[nH]c2ccccc12)NC(=O)C(Cc1c[nH]c2ccccc12)NC(=O)C(Cc1c[nH]c2ccccc12)NC(=O)OC(C)(C)C (configuration not stated) (Boc-WWWWWWWW-OMe; configuration not given here)", "OVCAR-3 ovarian", "> 100 µM"),
    ("CC(C)NC(=O)CN1CCN(c2c(O)c3c(c(O)c2Cl)C(=O)C=CC3=O)CC1", "OVCAR-3 ovarian", "2.97 µM"),
    ("CC(=O)c1cc2ccccc2oc1=O", "OVCAR-3 ovarian", "> 100 µM"),
    ("CC1OC(n2cc(F)c(=O)[nH]c2=O)C=CC1=O (configuration not stated)", "OVCAR-3 ovarian", "29.6 µM"),
    ("CCOC(=O)c1ccc(NCC#CCN2CCCCC2)cc1", "OVCAR-3 ovarian", "> 100 µM"),
    ("CN(C)CCNC(=O)c1ccc(NC(=O)c2nc([N+](=O)[O-])cn2C)cc1", "OVCAR-3 ovarian", "> 100 µM"),
]
